# target-desc: T1, P3028 (VFDEFKPLVEEPQNLIK, SEQ ID NO: 185), His-tagged (human)
# T1 construct: Synthetic fragment of human serum albumin (positions 397-413); used in solution as His-tagged peptide PGE73; also called PGE73; not shown: His-tag
# T1 peptide: VFDEFKPLVEEPQNLIK
# protocol-summary: PEPSCAN ELISA; peptide on chip, His-P3028 added;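 note: peroxidase color development with ABTS and H2O2 substrate, OD405 imaged by CCD camera with image processing and taken as raw values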
test-readout: RAMPO Score (rampo units)
Numbers only, in rampo units.

KKLDKFFVKLSLFTER [KKLDKFFVKLSLFTER (SEQ ID NO: 530)]    237
KKLDTFFVKLSLFKER [KKLDTFFVKLSLFKER (SEQ ID NO: 517)]    259
KKLDTRFVKLSLFTER [KKLDTRFVKLSLFTER (SEQ ID NO: 486)]    309

Shifting focus to the binder that follows.
RAMPO Score lookup needed for KKLDDFFVKLSLFTER [KKLDDFFVKLSLFTER (SEQ ID NO: 500)] , thanks.
295

The reported measurements were obtained from patent US20180177842A1.
